- target of assay: BRD4 (BDI_K57-E168) (Homo sapiens, UniProt O60885)
- procedure text: TR-FRET bromodomain binding assay, BRD4 first bromodomain (BDI)
- measurement context: mean Ki; 12 nM His tagged BRD4 (BDI_K57-E168), 100 nM Alexa647 probe; Ki calculated from IC50, probe Kd and probe concentration
reported property: pKi
Answers are plain numbers, as −log10 of the molar value.

Past entries and their recorded results:
- compound: "CN1C(=O)[C@@]2(C[C@H]2c2cn(C)c(=O)c3[nH]c(-c4ncco4)cc23)c2ccccc21 (racemic)"
  pKi: 5.55
- compound: "CN1C(=O)[C@]2(C[C@@H]2c2cn(C)c(=O)c3[nH]c(C(=O)NC4CC4)cc23)c2cc(F)ccc21"
  pKi: 5.30

Please supply pKi for each of the following items, keeping them in order.
1. CCNC(=O)c1cc2c([C@@H]3C[C@@]34C(=O)N(C)c3ccccc34)cn(C)c(=O)c2[nH]1 (racemic)
2. Cn1cc([C@@H]2C[C@@]23C(=O)N(C2CC2)c2ccccc23)c2cc(C(=O)NC3CC3)[nH]c2c1=O (racemic)
3. Cn1cc([C@H]2C[C@]23C(=O)Nc2ccccc23)c2cc(C(=O)NC3CC3)[nH]c2c1=O (single isomer, unassigned)

[5.22, 5.04, 5.13]

// for each compound in input: emit pKi
1. Cc1cc(-c2cc3c([C@@H]4C[C@@]45C(=O)N(C)c4ccccc45)cn(C)c(=O)c3[nH]2)on1 (racemic)
2. CCN1C(=O)[C@@]2(C[C@H]2c2cn(C)c(=O)c3[nH]c(C(=O)NC4CC4)cc23)c2ccccc21 (racemic)

1. 6.05
2. 5.40

---

Task for the reader: assign each of the following compounds its reported pKi.
- target of assay: BRD4 (BDI_K57-E168) (Homo sapiens, UniProt O60885)
- procedure text: TR-FRET bromodomain binding assay, BRD4 first bromodomain (BDI)
- measurement context: mean Ki; 12 nM His tagged BRD4 (BDI_K57-E168), 100 nM Alexa647 probe; Ki calculated from IC50, probe Kd and probe concentration
Give bare numbers, as −log10 of the molar value.

Observe how each entry below is paired with its result.
- compound: "CN1C(=O)[C@@]2(C[C@H]2c2cn(C)c(=O)c3[nH]c(C(=O)NC4CC4)cc23)c2cccc(Br)c21 (racemic) [Example 29]"
  pKi: 5.32
- compound: "CN1C(=O)[C@@]2(C[C@H]2c2cn(C)c(=O)c3[nH]c(-c4cc[nH]n4)cc23)c2ccccc21 (racemic) [Example 37]"
  pKi: 5.90
- compound: "COc1ccc2c(c1)N(C)C(=O)[C@@]21C[C@H]1c1cn(C)c(=O)c2[nH]c(C(=O)NC3CC3)cc12 (racemic) [Example 14]"
  pKi: 5.32
- compound: "CN1C(=O)[C@@]2(C[C@H]2c2cn(C)c(=O)c3[nH]c(-c4cncn4C)cc23)c2ccccc21 (racemic) [Example 44]"
  pKi: 5.89
- compound: "CN1C(=O)[C@]2(C[C@@H]2c2cn(C)c(=O)c3[nH]c(C(=O)NC4CC4)cc23)c2ccccc21 [Example 3]"
  pKi: 5.49
- compound: "CN1C(=O)[C@@]2(C[C@H]2c2cn(C)c(=O)c3[nH]c(C(=O)NC4CC4)cc23)c2ccc(F)cc21 (racemic) [Example 11]"
  pKi: 5.13

Respectfully, I request pKi for each entry included below.
1. CN1C(=O)[C@@]2(C[C@H]2c2cn(C)c(=O)c3[nH]c(-c4cnn(C)c4)cc23)c2ccccc21 (racemic) [Example 33]
2. CN1C(=O)[C@@]2(C[C@H]2c2cn(C)c(=O)c3[nH]c(C(=O)NC4CC4)cc23)c2ccccc21 (racemic) [Example 2]

[6.27, 5.27]
